Listed compounds paired with reported TGI
- Tested on: HL-60(TB) leukemia
- measurementNotes: NCI tumour cell line growth inhibition, 48 h
metric: TGI (µM)

| compound | valueComparator | reported |
| --- | --- | --- |
| Cc1ccc(-c2csc3ncnc(Nc4cccc(O)c4)c23)cc1 | = | 51.5 |
| NC(=O)c1c(NC(=O)c2ccc(C(F)(F)F)cc2Cl)sc2c1CCC(=O)C2 | = | 1.09 |
| O=C1CC2=CCCC2O1 (stereo not drawn) | > | 100 |
| COc1ccc(C(=O)c2[nH]c(Nc3cc(C)ccn3)c(C(=S)Nc3ccccc3)c2N)cc1 | = | 64 |
| CC[n+]1c(/C=C/c2cc(C(=O)OC)n3c2sc2ccccc23)sc2ccccc21 | = | 98.4 |
| COc1ccccc1OC/C(N=Cc1cccnc1)=N/NC(=O)c1ccncc1 | > | 100 |
| Nc1nc2cc(COc3ccc(C(=O)O)cc3)ccc2nc1-c1ccccc1 | > | 10 |
| COc1cc(/C=C2\CC3C4CC=C5C[C@@H](N6CCCC6)CC[C@]5(C)C4CC[C@]3(C)[C@H]2OC(C)=O)ccc1OCCCn1ccnc1 (stereo partly drawn) | = | 1.31 |
| O=C1OC(=O)c2c1cc1cc3c(cc1c2-c1ccc2c(c1)OCO2)OCO3 | > | 100 |
| C=CCNC(=S)NC=C(C(N)=O)C(N)=O | > | 100 |
| COc1ccc(-n2c(C)nc3ccc(NC4OCC(OC(C)=O)C(OC(C)=O)C4OC(C)=O)cc3c2=O)cc1 (stereo not drawn) | > | 100 |
| COc1ccc2[nH]c(=O)cc(C)c2c1[N+](=O)[O-] | > | 100 |
| CCc1n(Cc2ccc3ccccc3c2)cc[n+]1Cc1ccc2ccccc2c1 | = | 1.17 |
| CCc1cn(C2CC(CO)C(CO)S2)c(=O)[nH]c1=O (stereo not drawn) | > | 100 |
| O=C1C=CC(=O)N1c1ccc2ccccc2c1 | = | 33.5 |
| COc1ccc(C)cc1-c1ccc(-c2cc(C)ccc2OC)o1 | > | 100 |
| O=C1C[C@@H]2[C@@H](C=CC23CCCC3)N1O | > | 100 |
| COc1cc(C)cc2c1C(=O)C(NC(C)=O)=CC2=O | = | 53.2 |

Values compiled from PubChem BioAssay (NCI).
